Test system: HSC-39 (Gastric Carcinoma)
ASSAY_NOTES: Bliss excess, mean over the matrix (fraction); higher = more synergy;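 further: after 72 h of two-drug dosing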
Cut-off -0.005 on Bliss excess, inclusive. At or above means label 1; below means label 0.

N#Cc1cnc(Nc2cc(NC[C@H]3CNCCO3)c(C(F)(F)F)cn2)cn1 [SRA737] + CCc1c2c(nc3ccc(O)cc13)-c1cc3c(c(=O)n1C2)COC(=O)[C@]3(O)CC [SN-38] (first compound max 10 µM, 7x7, partner max 0.3 µM)
label 1
CCc1c2c(nc3ccc(O)cc13)-c1cc3c(c(=O)n1C2)COC(=O)[C@]3(O)CC [SN-38] + O=C(c1cc(Cc2n[nH]c(=O)c3ccccc23)ccc1F)N1CCN(C(=O)C2CC2)CC1 [Olaparib] (first compound max 0.3 µM, 7x7, partner max 10 µM)
label 0
CN(CCO)CC[C@H](CSc1ccccc1)Nc1ccc(S(=O)(=O)NC(=O)c2ccc(N3CCC([C@@H](O)c4ccccc4-c4ccc(Cl)cc4)CC3)cc2)cc1S(=O)(=O)C(F)(F)F [AZD4320] + Cn1cnc2c(F)c(Nc3ccc(Br)cc3Cl)c(C(=O)NOCCO)cc21 [Selumetinib] (first compound max 1 µM, 7x7, partner max 3 µM)
label 1
Cc1cc2ncnn2cc1Nc1ncc2c(n1)n(C1CCOCC1)c(=O)n2C [AZD7648] + C=CCn1c(=O)c2cnc(Nc3ccc(N4CCN(C)CC4)cc3)nc2n1-c1cccc(C(C)(C)O)n1 [AZD1775] (first compound max 10 µM, partner max 1 µM)
label 0

---

Entries and their measured Bliss excess follow.
System: A2058 (Melanoma)
ASSAY_NOTES: Bliss excess, mean over the matrix (fraction); higher = more synergy
MEASURED_ENDPOINT: Bliss excess

NC1(C(=O)N[C@@H](CCO)c2ccc(Cl)cc2)CCN(c2ncnc3[nH]ccc23)CC1 [Capivasertib] + CCN(CCO)CCCOc1ccc2c(Nc3cc(CC(=O)Nc4cccc(F)c4)[nH]n3)ncnc2c1 [AZD2811] (first compound max 10 µM, 7x7, partner max 1 µM)
0.0072
Cc1cc2ncnn2cc1Nc1ncc2c(n1)n(C1CCOCC1)c(=O)n2C [AZD7648] + C=CCn1c(=O)c2cnc(Nc3ccc(N4CCN(C)CC4)cc3)nc2n1-c1cccc(C(C)(C)O)n1 [AZD1775] (first compound max 10 µM, partner max 1 µM)
0.0194
C=CCn1c(=O)c2cnc(Nc3ccc(N4CCN(C)CC4)cc3)nc2n1-c1cccc(C(C)(C)O)n1 [AZD1775] + C[C@@H]1COCCN1C2=NC(=NC(=C2)C3(CC3)[S@](=N)(=O)C)C4=C5C=CNC5=NC=C4 [AZD6738] (first compound max 1 µM, partner max 10 µM)
0.0553
CC(=O)c1c(C)c2cnc(Nc3ccc(N4CCNCC4)cn3)nc2n(C2CCCC2)c1=O [Palbociclib] + Cn1cnc2c(F)c(Nc3ccc(Br)cc3Cl)c(C(=O)NOCCO)cc21 [Selumetinib] (first compound max 10 µM, 7x7, partner max 10 µM)
0.0131
CN(CCO)CC[C@H](CSc1ccccc1)Nc1ccc(S(=O)(=O)NC(=O)c2ccc(N3CCC([C@@H](O)c4ccccc4-c4ccc(Cl)cc4)CC3)cc2)cc1S(=O)(=O)C(F)(F)F [AZD4320] + Cc1cc2ncnn2cc1Nc1ncc2c(n1)n(C1CCOCC1)c(=O)n2C [AZD7648] (first compound max 1 µM, 7x7, partner max 10 µM)
-0.0231

Value source: the supplement of paper PMC11061612
